Data origin, for the record: PubChem BioAssay AID686979

- test: qHTS for Inhibitors of human tyrosyl-DNA phosphodiesterase 1 (TDP1): qHTS in cells in presence of CPT; note: nearly all actives have a fitted effect of over 55% in size
- test_context: chicken DT40 Tdp1-/-;hTDP1 cells + 20 nM CPT, ATP luminescence, 48 h; series mostly up to 46.2 µM
- Protocol: Human tyrosyl-DNA phosphodiesterase 1 (TDP1) is a novel repair gene, and we propose to use it as a new target for anticancer drug development. […] For the primary screen, Tdp1-/-;hTDP1 cells will be exposed to small molecules in the presence or absence of CPT, and their growth kinetics will be evaluated after 48 hours by measuring ATP activity. […] The hit compounds will then be evaluated in the presence or absence of CPT using Tdp1-/- cells. […]
Out of some 420,000 compounds screened, about 50,000 (12%) were called active. About 26% were inconclusive and are not listed. Calls come from the whole dose curve; as a rule, active = well fitted inhibition curve with a large enough effect; inconclusive = small, poorly fitted or top-dose-only effect; inactive = flat fitted curve, though single readings scatter. For the sample, actives were picked, then their nearest neighbours and some compounds at random.
Labels: T = active, F = inactive

COc1ccc(NC(=O)NN2CCN(C)CC2)c(OC)c1 ... F
Cc1cc(C)n(-c2ccc(C(=O)O)cc2[N+](=O)[O-])n1 ... F
CCOC(=O)C1CCN(S(=O)(=O)c2ccc3c(c2)N(C)C(=O)CC(=O)N3C)CC1 ... F
Nc1cc2c(cc1Br)-c1ccc(F)cc1C2=O ... F
COC(=O)C(CC(=O)Nc1cc(C)ccc1C)Nc1ccccc1OC (configuration not stated) ... F
NS(=O)(=O)c1ccc(N=Cc2ccc(Br)s2)cc1 ... F
COC(=O)C1=C(C(=O)OC)[C@@H]2N(C)c3ccccc3[C@@]23C[C@@H](C(=O)OC)N(C(=O)c2ccco2)C3=N1 ... F
CN1CCN(S(=O)(=O)c2ccc(N3CCN(c4ccccc4O)CC3)c([N+](=O)[O-])c2)CC1 ... T
Cc1ccc(C)c(NC(CC(=O)c2ccccc2)C(=O)OCC(=O)c2cccs2)c1 (configuration not stated) ... T
O=C(O)c1ccc2c(c1)C(=O)N(c1ccc(/C=C/C(=O)c3ccccc3)cc1)C2=O ... F
O=C(CN1C(=O)CCn2nc(-c3ccccc3)cc21)NCc1ccccc1 ... F
COc1ccc(NC(=O)N2CCCn3nc(C)cc32)cc1OC ... F
COc1ccc(NC(=O)CCCN2C(=O)CCn3nc(-c4cn(C)c5ccccc45)cc32)cc1OC ... T
Cc1cc(N)n(-c2ccc(S(=O)(=O)N3CCCC3)cc2[N+](=O)[O-])n1 ... F
O=C(/C=C/c1ccccc1)c1ccccc1O ... T
Cc1ccccc1CNC(=O)CCC(=O)N1Cc2ccccc2Oc2ncccc21 ... F
O=C(/C=C/c1ccccc1)N/C(=C/c1ccccc1)C(=O)Nc1ccccc1O ... F
